# Test system: α-amylase
# ASSAY_COMMENT: α-amylase enzyme inhibition assay (starch, dinitro-salicylic acid, 540 nm)
# Format: biochemical
# EXPERIMENTAL_PARAMETERS: 500 µg/mL, Table 8 (MCu series)
VALUE_TYPE: % Inhibition (%)
Entry rule: numbers only, all in %.

Exercise: Look at this molecule and give its reported % Inhibition. `CC(C)=NC(=N)NC(=N)N(C)C.CC(C)=NC(=N)NC(=N)N(C)C.O.O.O.O.O.O=S(=O)([O-])[O-].[Cu+2]`
Solution: 38.44

Exercise: Look at this molecule and give its reported % Inhibition. `CC(=NC(=N)NC(=N)N(C)C)c1ccccc1.CC(=NC(=N)NC(=N)N(C)C)c1ccccc1.O.O.O.O.O.O=S(=O)([O-])[O-].[Cu+2]`
Solution: 45.45

Exercise: Look at this molecule and give its reported % Inhibition. `CN(C)C(=N)NC(=N)N=C(c1ccccc1)c1ccccc1.CN(C)C(=N)NC(=N)N=C(c1ccccc1)c1ccccc1.O.O.O.O.O.O=S(=O)([O-])[O-].[Cu+2]`
Solution: 38.31

* * *

# TESTED_SYSTEM: α-glucosidase
# ASSAY_COMMENT: α-glucosidase enzyme inhibition assay (starch substrate, anthrone reagent, 640 nm)
# Type: biochemical
# EXPERIMENTAL_PARAMETERS: Table 5 (MCu series), read-out: IC50
VALUE_TYPE: IC50 (µM)
Entry rule: numbers only, all in µM.

Exercise: Look at this molecule and give its reported IC50. `CN(C)C(=N)NC(=N)N=C(c1ccccc1)c1ccccc1.CN(C)C(=N)NC(=N)N=C(c1ccccc1)c1ccccc1.O.O.O.O.O.O=S(=O)([O-])[O-].[Cu+2]`
Solution: 320

Exercise: Look at this molecule and give its reported IC50. `CN(C)C(=N)NC(=N)N=Cc1ccccc1.CN(C)C(=N)NC(=N)N=Cc1ccccc1.O.O.O.O.O.O=S(=O)([O-])[O-].[Cu+2]`
Solution: 600

Exercise: Look at this molecule and give its reported IC50. `C=NC(=N)NC(=N)N(C)C.C=NC(=N)NC(=N)N(C)C.O.O.O.O.O.O=S(=O)([O-])[O-].[Cu+2]`
Solution: 500

Exercise: Look at this molecule and give its reported IC50. `COc1cc(C=NC(=N)NC(=N)N(C)C)ccc1O.COc1cc(C=NC(=N)NC(=N)N(C)C)ccc1O.O.O.O.O.O.O=S(=O)([O-])[O-].[Cu+2]`
Solution: 720

* * *

Exercise: for every item that follows, state its recorded % Inhibition.
# Tested on: α-amylase
# ASSAY_COMMENT: α-amylase enzyme inhibition assay (starch, dinitro-salicylic acid, 540 nm)
# Format: biochemical
# EXPERIMENTAL_PARAMETERS: 500 µg/mL, Table 7 (Met series)

Exercise: Look at this compound and give its reported % Inhibition. CN(C)C(=N)N=C(N)N [Met, N,N-dimethyltriimidodicarbonic diamide, reference compound]
Solution: 63.18 ± 0.20%

Exercise: Look at this compound and give its reported % Inhibition. CN(C)C(=N)NC(=N)N=C(c1ccccc1)C(O)c1ccccc1 (stereo not drawn) [Met9]
Solution: 8.61 ± 0.25%

Exercise: Look at this compound and give its reported % Inhibition. CC(C)=NC(=N)NC(=N)N(C)C [Met5]
Solution: 39.48 ± 0.32%

* * *

Exercise: for every item that follows, state its recorded pIC50.
# TESTED_SYSTEM: α-amylase
# ASSAY_COMMENT: α-amylase enzyme inhibition assay (starch, dinitro-salicylic acid, 540 nm)
# Format: biochemical
# EXPERIMENTAL_PARAMETERS: Table 9 (MZn series), read-out: IC50
Quick note: pIC50 means taking -log10 of the concentration in moles per liter.

Exercise: Look at this molecule and give its reported pIC50. `CN(C)C(=N)NC(=N)N=CC=Cc1ccccc1.CN(C)C(=N)NC(=N)N=CC=Cc1ccccc1.O.O.O.O.O.O=S(=O)([O-])[O-].[Zn+2]`
Solution: 3.11

Exercise: Look at this molecule and give its reported pIC50. `CN(C)C(=N)NC(=N)N=Cc1ccccc1O.CN(C)C(=N)NC(=N)N=Cc1ccccc1O.O.O.O.O.O.O=S(=O)([O-])[O-].[Zn+2]`
Solution: 3.17

Exercise: Look at this molecule and give its reported pIC50. `COc1cc(C=NC(=N)NC(=N)N(C)C)ccc1O.COc1cc(C=NC(=N)NC(=N)N(C)C)ccc1O.O.O.O.O.O.O=S(=O)([O-])[O-].[Zn+2]`
Solution: 3.05

Exercise: Look at this molecule and give its reported pIC50. `CC(=NC(=N)NC(=N)N(C)C)c1ccccc1.CC(=NC(=N)NC(=N)N(C)C)c1ccccc1.O.O.O.O.O.O=S(=O)([O-])[O-].[Zn+2]`
Solution: 3.27

* * *

# System: α-glucosidase
# ASSAY_COMMENT: α-glucosidase enzyme inhibition assay (starch substrate, anthrone reagent, 640 nm)
# Format: biochemical
# EXPERIMENTAL_PARAMETERS: 250 µg/mL, Table 6 (MZn series)
VALUE_TYPE: % Inhibition (%)
Entry rule: numbers only, all in %.

Exercise: Look at this compound and give its reported % Inhibition. `C=NC(=N)NC(=N)N(C)C.C=NC(=N)NC(=N)N(C)C.O.O.O.O.O.O=S(=O)([O-])[O-].[Zn+2]`
Solution: 11.30

Exercise: Look at this compound and give its reported % Inhibition. `CC(C)=NC(=N)NC(=N)N(C)C.CC(C)=NC(=N)NC(=N)N(C)C.O.O.O.O.O.O=S(=O)([O-])[O-].[Zn+2]`
Solution: 32.86

Exercise: Look at this compound and give its reported % Inhibition. C[C@H]1O[C@H](O[C@H]2[C@H](O)[C@@H](O)[C@@H](O[C@H]3[C@H](O)[C@@H](O)C(O)O[C@@H]3CO)O[C@@H]2CO)[C@H](O)[C@@H](O)[C@@H]1N[C@H]1C=C(CO)[C@@H](O)[C@H](O)[C@H]1O (stereo partly shown) [Acarbose, reference compound]
Solution: 54.12

Exercise: Look at this compound and give its reported % Inhibition. `CN(C)C(=N)NC(=N)N=CC=Cc1ccccc1.CN(C)C(=N)NC(=N)N=CC=Cc1ccccc1.O.O.O.O.O.O=S(=O)([O-])[O-].[Zn+2]`
Solution: 50.22
